Molecular target: T1, thermostable variant of Streptomyces mobaraensis transglutaminase (Streptomyces mobaraensis, UniProt P81453 79-407)
T1 sequence: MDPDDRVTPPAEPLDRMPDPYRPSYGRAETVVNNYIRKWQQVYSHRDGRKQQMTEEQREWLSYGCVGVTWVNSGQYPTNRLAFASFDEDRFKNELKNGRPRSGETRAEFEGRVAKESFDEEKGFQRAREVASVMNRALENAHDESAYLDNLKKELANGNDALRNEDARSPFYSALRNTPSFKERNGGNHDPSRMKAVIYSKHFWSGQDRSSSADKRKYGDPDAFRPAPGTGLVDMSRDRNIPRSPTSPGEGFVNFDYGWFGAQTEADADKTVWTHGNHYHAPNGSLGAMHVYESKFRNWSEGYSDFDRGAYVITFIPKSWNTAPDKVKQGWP
Experiment: cell-based or functional assay
quantity_kind: Reduction in binding affinity of inhibitory peptide relative to WT

In: Hello, please tell me recorded Reduction in binding affinity of inhibitory peptide relative to WT for this one: MDNGAGGETKSYAETYRLTADDVANINALNESAPAASSAGPSFRAP [pro-peptide variant E7G]
Out: > 1.2 fold

In: Hello, please tell me recorded Reduction in binding affinity of inhibitory peptide relative to WT for this one: MDNGAGEETKSYAHTYRLTADDVANINALNESAPAASSAGPSFRAP [pro-peptide variant E14H]
Out: > 1.2 fold

In: Hello, please tell me recorded Reduction in binding affinity of inhibitory peptide relative to WT for this one: MDNGAGEETKSYAETYRLTADYVANINALNESAPAASSAGPSFRAP [pro-peptide variant D22Y]
Out: > 1.2 fold

In: Hello, please tell me recorded Reduction in binding affinity of inhibitory peptide relative to WT for this one: MDNGAGEETKSYAETYRLTADDVANINALNESAPAASYAGPSFRAP [pro-peptide variant S38Y]
Out: > 1.2 fold

In: Hello, please tell me recorded Reduction in binding affinity of inhibitory peptide relative to WT for this one: MDNGAGEETKSYAETYRLTALDVANINALNESAPAASSAGPSFRAP [pro-peptide variant D21L]
Out: > 5 fold

In: Hello, please tell me recorded Reduction in binding affinity of inhibitory peptide relative to WT for this one: MDNGAGEETKKYAETYRLTADDVANINALNESAPAASSAGPSFRAP [pro-peptide variant S11K]
Out: > 1.2 fold

Data origin: patent US20250304927A1
